# credit: the nanobody polyreactivity screen of Harvey et al. (2022)

- testMethodNotes: yeast display, Sf9 membrane polyspecificity reagent, FACS + sequencing; frameworks hold sequencing errors
measuredQuantity: polyreactivity (PSR sort gate)

The following sequences have reported results that may help.
QVQLVESGGGLVQAGGSLRLSCAASGSTFPYYALGWSRQAPGKEREFVATISSSGGSTYYADSVKGRFTISRDNAKNTVYLQMNSLKPEDTAVYYCAARYQTSGFRYRYGYWGQGTQVTVSS high polyreactivity
QVQLVESGGGLVQAGGRLRLSCAASGSTFYNYAMGWYRQAPGKERELVASIPWNGGSTYYADSVKGRFTISRDNAKNTVYLQMNSLKPEDTAVYYCAADWTWTYPYDYWGQGTQVTVSS low polyreactivity
QVQLVESGGGLVQAGGSLRLSCAASGSIFRAYAMGWYRQAPGKERELVADISRSGGSTYYADSVKGRFTISRDNAKNTVYLQLNSLKPEDTAVYYCAAVFYLYSNLYGEYDYWGQGTQVTVSS low polyreactivity
QVQLLESGGGLVQAGGSLRLSCAASGRTLDRNAMGWYRQAPGKERELVAAISRRTGSTYYADSVKGRFTISRDNAKNTVYLQMNSLKPEDTAVYYCNKVTYGDFDYWGQGTQVTVSS high polyreactivity
QVQLVESGGGLVQAGGSLRLSCSASGFIFTTYAMAWYRQAPGKERELVAAIRNSDGSTYYADSVKGRFTISRDNAKNTVYLQMNSLKPVDTAVYYCAKRYRGEPGRTYGYWGQGTQVTVSS high polyreactivity
QVQLVESGGGLVQAGGSLRLSCAASGRTFRWYTMGWYRQAPGKEREFVAAITWSGSSTDYADSVKGRFTISRDNAKNTVYLQMNSLKPEDTAVYYCAAENRRSRDDYWGQGTQVTVSS high polyreactivity
QVQLVESGGGLVQAGGSLRLSCAASGRTSLRYAMGWYRLAPGKDRELVAAIRYGGGSTRYADSVKGRFTISRDNAKNTVYLQMKSLKPEDTAVSYCAARYFPRIQYGRKGYDYWGQGTQVTVSA low polyreactivity
QVQLVESGGGLVQAGGSLRLSCAASGRTFRYYVMGWYRPAPGKERELVASITSNGDSTYYADSVKGRFTISRDNAKNTVFLQWKSLKPEDTAVDYCAVRWRDYRGSYRGFEYWGQGSQVTVSS high polyreactivity

Reported polyreactivity (PSR sort gate) for QVQLVESGGGLVQAGGSLRLSCAASGRIFTPNAMGWYRQAPGKERELVAAITWSGDNTYADSVKGRFTISRDNAKNTVYLQMNSLKPEDTAVYYCAAAYGYGHKKYGYWGQGTQVTVSS : what is it?
low polyreactivity

# polyreactivity (PSR sort gate) lookup, item QVQLVESGGGLVQAGGILRLSCPASGSIIVFYAMGWYRQAPGKEREIVATITWSGTSTYYADSVKGRFTISRDYAKNTVYLQKNSLKPEDTAVYYCNARTVKASYVGYNYWGQGTQVTVSS
high polyreactivity

// lookup polyreactivity (PSR sort gate) for QVQLVESGGGLVQAGGSLRLSCAASGRIFSAYAMGWYRQAPGKERELVAAITLSDGSTYYADSVKGRFTISRDNAKNTVYLQMNSLKPEDTAVYYCNADWYAYPYGYWGQGTQVTVSS
low polyreactivity

---

- testMethodNotes: yeast display, Sf9 membrane polyspecificity reagent, FACS + sequencing; frameworks hold sequencing errors
measuredQuantity: polyreactivity (PSR sort gate)

QVQLLESGGGLVQAGGSRRLSCAASGSTFYGYAMGWYRQAPGKEREFVAAITTSGGSTYYADSVKGRFTISRDNAKNTVYLQMNSLKPEDTAVYYCAADAPSWYDRQYDYWGQGTQVTVSS low polyreactivity
QVQLVESGGGLVQAGGSLRLSCAASGFIFVYNAMGWYRQAPGKERELVAVISSGGSTYYADSVKGRFTISRDNAKNTVYLQMNSLKPEDTAVYYCNKRRYDIKDEYDYWGQGTQVTVSS low polyreactivity
